SUBJECT_OF_TEST: Ras-related C3 botulinum toxin substrate 1 (Homo sapiens) (UniProt P63000)
ASSAY_TEXT: activated mutant Rac1 GTP binding inhibitors, SAR follow-up, biochemical, oxadiazole analogs, multiplex bead flow cytometry (AID 2051)
EXPERIMENTAL_CONDITIONS: Bead-based flow cytometry, Bodipy-FL-GTP binding to GST-Rac1; measured here: Ki calculated from EC50
Record form. Attribute: Ki. Fill in for each entry.
Numbers only, in nM.

Cc1ccc(C)c(N2CCN(C(=O)CCc3nc(-c4ccc(Cl)cc4)no3)CC2)c1 | 200

Batch lookup, Ki per entry.
1. Cc1ccc(C)c(N2CCN(C(=O)CCc3nc(-c4ccccc4F)no3)CC2)c1
2. COc1ccc(-c2noc(CCC(=O)N3CCN(c4ccccc4Br)CC3)n2)cc1

Result:
200
200
